Test: qHTS for Inhibitors of the Functional Ribonucleoprotein Complex (vRNP) of Lassa (LASV) Arenavirus: LASV Primary Screen - GLuc reporter signal (AID 1347082); also: nearly all actives have a fitted effect of over 60% in size
Conditions: LASV minigenome vRNP, Gaussia luciferase reporter; series mostly up to 57.5 µM
Inconclusive results are not listed. The source made the active and inactive calls. Calls follow the shape of the full dose curve; tested in HEK293 reporter line.
Answer with one of the outcomes given here: yes (1) for active, no (0) for inactive

compound	class_label
NS(=O)(=O)Cc1noc2ccccc12	no (0)
Cc1ccc(O)c([C@H](CCN(C(C)C)C(C)C)c2ccccc2)c1	no (0)
O=c1c(O)c(-c2ccc(O)c(O)c2)oc2cc(O)cc(O)c12	no (0)
CC[C@@]1(O)C(=O)OCc2c1cc1n(c2=O)Cc2cc3c(CN(C)C)c(O)ccc3nc2-1	yes (1)
C[C@@H](O)[C@H]1C(=O)N2C(C(=O)O)=C(S[C@@H]3CN[C@H](C(=O)N(C)C)C3)[C@H](C)[C@H]12	no (0)
CSc1ccc2c(c1)N(CCC1CCCCN1C)c1ccccc1S2 (stereo unspecified)	no (0)
NCCCC(O)(P(=O)(O)O)P(=O)(O)O	no (0)
CC(S)C(=O)NCC(=O)O (stereo unspecified)	no (0)

I would be grateful if you could indicate the recorded call for `CN1CCN(C2=Nc3ccccc3Oc3ccc(Cl)cc32)CC1` . no (0)

I would be grateful if you could indicate the recorded call for `O=C(O)C(=O)c1cn(Cc2ccccc2)c2ccc(-c3ccc(OC(F)(F)F)cc3)cc12` . no (0)

I would be grateful if you could indicate the recorded call for `CC(C)(N)Cc1ccc(Cl)cc1` . no (0)

----------
Listing of entries alongside the reported efficacy.
Details: Ebola virus entry assay, green fluorescence channel
Measured potencies and affinities stand elsewhere. Activity calls are given as the source filed them.

Some solved cases for reference:
compound	efficacy
Nc1cc(-c2ccncc2)c[nH]c1=O	26.8% (inactive)
CC(C)NC[C@@H](O)COc1ccc(CC(N)=O)cc1	-16.3% (inactive)

Consider the compound `CN1CCc2cccc3c2[C@H]1Cc1ccc(O)c(O)c1-3` and give its measured efficacy. 61.6% (inactive)

Consider the compound `COc1ccc(-c2cc(=S)ss2)cc1` and give its measured efficacy. -17.7% (inactive)

Consider the compound `CNS(=O)(=O)Cc1ccc2[nH]cc(CCN(C)C)c2c1` and give its measured efficacy. 17.1% (inactive)

Consider the compound `CS(=O)(=O)OCCCCOS(C)(=O)=O` and give its measured efficacy. 19.1% (inactive)

Consider the compound `O=C(CCCN1CCC(O)(c2ccc(Cl)cc2)CC1)c1ccc(F)cc1` and give its measured efficacy. 61.7% (inactive)

Consider the compound `CN(C)c1cc(NC(=O)CNC(C)(C)C)c(O)c2c1C[C@@H]1C[C@H]3[C@H](N(C)C)C(=O)C(C(N)=O)=C(O)[C@@]3(O)C(=O)C1=C2O` and give its measured efficacy. 47.7% (inactive)

Consider the compound CC(C)=CC1C(C(=O)OCc2cccc(Oc3ccccc3)c2)C1(C)C (stereo unspecified) and give its measured efficacy. -13.4% (inactive)

----------
Experiment: A High-Content qHTS Against Drug Library for the Identification of Small Molecules that Inhibit DYT1 Early Onset Primary Dystonia-Associated Cell Pathology (AID 1645839)
Conditions: HEK293 Flp-In EGFP-delE TorsinA, punctate imaging, 48 h; series mostly up to 46.1 µM
Description: Nicole Calakos M.D., Ph.D. Duke University School of Medicine, Durham, NC […] The bioassay described herein is a high-content image screen with two readouts. The "%pathology" readout is the primary qHTS data channel, while the "cellcount" is the counterscreen qHTS channel. Desired active compounds are those that show inhibition in %pathology channel but no activity or minimal toxicity in cellcount readout. […]
Results filed as inconclusive are left out. The source made the active and inactive calls. The call rests on the fitted dose curve.
quantity_kind: % pathology change, negative = correction

molecule	measurement
NCC(CC(=O)O)c1ccc(Cl)cc1 (stereo not drawn)	14.6% [at 0.369 µM] (inactive)
C=CCN1CC[C@]23c4c5ccc(O)c4O[C@H]2C(=O)CC[C@@]3(O)[C@H]1C5	inactive
Cc1ccc(S(=O)(=O)N[C@@H](CCCCN)C(=O)CCl)cc1	inactive
